# Assay Protocol: PK study after topical ocular administration of compound I-2 solution
# Format: in vivo, Dutch-belted rabbits
# Condition Description: Dutch-belted, rabbit, topical or ocular, 50 μL of 0.5% solution; Retina (8-mm punch); topical 0.5% solution, 50 μL BID 5 days
Endpoint Label: Cmax (nM)

[
  {
    "Compound": "Cc1cc(C(=O)Nc2cc(Oc3ccc4nc(NC(=O)CN5CC[C@H](N(C)C)C5)cn4n3)ccc2C)n(C)n1 [Compound I-2]",
    "Endpoint Label": "Cmax",
    "Result Unit": "nM",
    "Reported Result": 218
  }
]

----------
# Assay Protocol: PK study after topical ocular administration of compound I-2 solution
# Assay type: in vivo, Dutch-belted rabbits
# Condition Description: Dutch-belted, rabbit, topical or ocular, 50 μL of 0.5% solution; Plasma; topical 0.5% solution, 50 μL BID 5 days; read-out: t½ (converted)

[
  {
    "Smiles Text": "Cc1cc(C(=O)Nc2cc(Oc3ccc4nc(NC(=O)CN5CC[C@H](N(C)C)C5)cn4n3)ccc2C)n(C)n1",
    "half-life / h": 3.63
  }
]

----------
# Assay Protocol: PK study after topical ocular administration of compound I-2 solution
# Format: in vivo, Dutch-belted rabbits
# Condition Description: Dutch-belted, rabbit, topical or ocular, 50 μL of 0.5% solution; Plasma; topical 0.5% solution, 50 μL BID 5 days; read-out: AUC0-12 hr

[
  {
    "Smiles Text": "Cc1cc(C(=O)Nc2cc(Oc3ccc4nc(NC(=O)CN5CC[C@H](N(C)C)C5)cn4n3)ccc2C)n(C)n1",
    "AUC(0-t) [µM·h]": 0.0256
  }
]

----------
# Assay Protocol: PK study after topical ocular administration of compound I-2 solution
# Type: in vivo, Dutch-belted rabbits
# Condition Description: Dutch-belted, rabbit, topical or ocular, 50 μL of 0.5% solution; Choroid (8-mm punch); topical 0.5% solution, 50 μL BID 5 days

[
  {
    "Compound": "Cc1cc(C(=O)Nc2cc(Oc3ccc4nc(NC(=O)CN5CC[C@H](N(C)C)C5)cn4n3)ccc2C)n(C)n1 [Compound I-2]",
    "Result Unit": "µM",
    "Cmax": 1.79
  }
]

----------
# Assay Protocol: PK study after topical ocular administration of compound I-2 solution
# Type: in vivo, Dutch-belted rabbits
# Condition Description: Dutch-belted, rabbit, topical or ocular, 50 μL of 0.5% solution; Choroid (8-mm punch); topical 0.5% solution, 50 μL BID 5 days; read-out: AUC0-12 hr

[
  {
    "Smiles Text": "Cc1cc(C(=O)Nc2cc(Oc3ccc4nc(NC(=O)CN5CC[C@H](N(C)C)C5)cn4n3)ccc2C)n(C)n1",
    "AUC(0-t) (µM·h)": 12.5
  }
]

----------
# Assay Protocol: PK study after topical ocular administration of compound I-2 solution
# Format: in vivo, Dutch-belted rabbits
# Condition Description: Dutch-belted, rabbit, topical or ocular, 50 μL of 0.5% solution; Retina (8-mm punch); topical 0.5% solution, 50 μL BID 5 days
Endpoint Label: Tmax (min)

[
  {
    "Molecule": "Cc1cc(C(=O)Nc2cc(Oc3ccc4nc(NC(=O)CN5CC[C@H](N(C)C)C5)cn4n3)ccc2C)n(C)n1 [Compound I-2]",
    "Endpoint Label": "Tmax",
    "Reported Result": 30
  }
]
